Origin of values: patent US20240383922A1

# key: entry, value: IC50
molecular target: GDP-loaded KRAS-G12C (Homo sapiens (Human), UniProt P01116, G12C); assay: KRAS (GDP) biochemical TR-FRET probe displacement assay, KRAS-G12C; details: 2 hours
Sequence (P01116-2 other isoform, or with tags, fused parts or gaps G12C): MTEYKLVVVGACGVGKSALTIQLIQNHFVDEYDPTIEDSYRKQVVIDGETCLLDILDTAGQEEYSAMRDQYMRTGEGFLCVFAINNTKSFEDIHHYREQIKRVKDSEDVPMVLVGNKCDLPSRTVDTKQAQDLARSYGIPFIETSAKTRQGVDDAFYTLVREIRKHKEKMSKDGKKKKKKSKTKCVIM

- MOLECULE: "C#Cc1c(F)ccc2cc(O)cc(-c3nc4c5c(nc(OC[C@@]67CCCN6[C@H](COc6nccnc6C(F)C(C)F)CC7)nc5c3F)N3CCCOC[C@@H]3CC4)c12 (stereo partly drawn) [Example 6-14]"
  IC50: "0.08 nM"
- MOLECULE: "C#Cc1c(F)ccc2cc(N)cc(-c3nc4c5c(nc(OC[C@@]67CCCN6[C@H](COc6cc(C(F)(F)F)ncn6)CC7)nc5c3F)N3CCCOC[C@@H]3CC4)c12 [Example 7-4]"
  IC50: "1.02 nM"
- MOLECULE: "C#Cc1c(F)ccc2cc(O)cc(-c3nc4c5c(nc(OC[C@@]67CCCN6C[C@H](F)C7)nc5c3F)N3CCCCC3CCn3nncc3-4)c12 (mixture of isomers) [Example 11-1]"
  IC50: "> 1000 nM"

###

tested on: cellular pERK in Kuramochi (WT KRAS) cell-line; test: Cell based pERK assay (HTRF), Kuramochi; conditions: Kuramochi (WT KRAS) cells, 2 hours incubation
pEC50: −log10 of the molar value.
Each entry gets f if its pEC50 stays under 8, and t if its pEC50 is 8 or above.

- COMPOUND: "C#Cc1c(F)ccc2cc(O)cc(-c3nc4c5c(nc(OC[C@@]67CCCN6C[C@H](F)C7)nc5c3F)N3CCCCC3(C)CC4)c12 (stereo partly drawn)"
  MEASURED_TARGET: "cellular pERK in Kuramochi (WT KRAS) cell-line"
  DISCRETE_LABEL: "f"
- COMPOUND: "C#Cc1c(F)ccc2cc(N)cc(-c3nc4c5c(nc(OC[C@@]67CCCN6[C@H](COc6cc(C(F)(F)F)ncn6)CC7)nc5c3F)N3CCCOC[C@@H]3CC4)c12"
  MEASURED_TARGET: "cellular pERK in Kuramochi (WT KRAS) cell-line"
  DISCRETE_LABEL: "t"
- COMPOUND: "C#Cc1c(F)ccc2cc(N)cc(-c3nc4c5c(nc(OC[C@@]67CCCN6[C@H](CF)CC7)nc5c3F)N3CCCOC[C@@H]3CC4)c12"
  MEASURED_TARGET: "cellular pERK in Kuramochi (WT KRAS) cell-line"
  DISCRETE_LABEL: "t"
- COMPOUND: "C#Cc1c(F)ccc2cc(O)cc(-c3nc4c5c(nc(OC[C@@]67CCCN6C[C@H](F)C7)nc5c3F)N3CCOCC[C@H]3CC4)c12 (single isomer, unassigned)"
  MEASURED_TARGET: "cellular pERK in Kuramochi (WT KRAS) cell-line"
  DISCRETE_LABEL: "f"
- COMPOUND: "CCc1c(F)c(F)cc2cc(N)cc(-c3nc4c5c(nc(OCC67CCCN6CCC7)nc5c3F)N3CCCOC[C@@H]3CC4)c12"
  MEASURED_TARGET: "cellular pERK in Kuramochi (WT KRAS) cell-line"
  DISCRETE_LABEL: "f"

###

target: GDP-loaded KRAS-G12C (Homo sapiens (Human), UniProt P01116, G12C); assay: KRAS (GDP) biochemical TR-FRET probe displacement assay, KRAS-G12C; conditions: 2 hours
pIC50: −log10 of the molar value.
// bucketize pIC50: group 1 = under 8, group 2 = from 8 up to 9, group 3 = 9 and over

- COMPOUND: "C#Cc1c(F)ccc2cccc(-c3nc4c5c(nc(OC[C@@]67CCCN6[C@H](COc6cc(C(F)(F)F)ncn6)CC7)nc5c3F)N3CCCOC[C@@H]3CC4)c12 [Example 6-15]"
  DISCRETE_LABEL: "group 1"
- COMPOUND: "C#Cc1c(F)ccc2cc(O)cc(-c3nc4c5c(nc(OC[C@@]67CCCN6[C@H](COc6cc(C(F)(F)F)ncn6)CC7)nc5c3F)N3CCCOC[C@@H]3C=C4C)c12 [Example 18-1]"
  DISCRETE_LABEL: "group 2"
- COMPOUND: "C#Cc1c(F)ccc2cc(O)cc(C3=C(F)C4N=C(OC[C@@]56CCCN5C[C@H](F)C6)N=C5C4C(=C3F)C(C)=C[C@H]3COCCCN53)c12 (some centres unmarked) [Example 6-28]"
  DISCRETE_LABEL: "group 2"
- COMPOUND: "Cc1cc(N)nc(-c2c(Cl)c3c4c(nc(OC[C@@]56CCCN5C[C@H](F)C6)nc4c2F)N2CCCOCC2CC3)c1C(F)(F)F (mixture of isomers) [Example 21-1]"
  DISCRETE_LABEL: "group 1"
- COMPOUND: "C#Cc1c(F)ccc2cc(O)cc(-c3nc4c5c(nc(OC[C@@]67CCCN6[C@H](COc6cc(C(F)(F)F)cnn6)CC7)nc5c3F)N3CCCOC[C@@H]3C=C4C)c12 [Example 18-2]"
  DISCRETE_LABEL: "group 3"
- COMPOUND: "C#Cc1c(F)ccc2cccc(-c3nc4c5c(nc(OC[C@@]67CCCN6[C@H](COC(=O)N(CC)CC)CC7)nc5c3F)N3CCCOC[C@@H]3CC4)c12 [Example 16-1]"
  DISCRETE_LABEL: "group 1"

###

pIC50: −log10 of the molar value.
The following molecules each carry a recorded pIC50 for GDP-loaded wild-type KRAS (WT) (Homo sapiens (Human), UniProt P01116).

- MOLECULE: "C#Cc1c(F)ccc2cc(O)cc(-c3nc4c5c(nc(OC[C@@]67CCCN6[C@H](COC(C(F)(F)F)(C(F)(F)F)C(F)(F)F)CC7)nc5c3F)N3CCCOC[C@@H]3CC4)c12 [Example 22-4]"
  MEASURED_TARGET: "GDP-loaded wild-type KRAS (WT) (Homo sapiens (Human), UniProt P01116)"
  pIC50: 8.92
- MOLECULE: "C#Cc1c(F)ccc2cc(O)cc(-c3nc4c5c(nc(OCC67CCCN6[C@H](COC(C(F)(F)F)C(F)(F)F)CC7)nc5c3F)N3CCCOCC3CC4)c12 (some centres unmarked) [Example 22-7]"
  MEASURED_TARGET: "GDP-loaded wild-type KRAS (WT) (Homo sapiens (Human), UniProt P01116)"
  pIC50: 7.51
- MOLECULE: "Cc1cc(N)nc(-c2c(Cl)c3c4c(nc(OC[C@@]56CCCN5C[C@H](F)C6)nc4c2F)N2CCCOCC2CC3)c1C(F)(F)F (mixture of isomers) [Example 21-1]"
  MEASURED_TARGET: "GDP-loaded wild-type KRAS (WT) (Homo sapiens (Human), UniProt P01116)"
  pIC50: 5.28
- MOLECULE: "C#Cc1c(F)ccc2cccc(-c3nc4c5c(nc(OC[C@@]67CCCN6[C@H](COc6cc(C(F)(F)F)ncn6)CC7)nc5c3F)N3CCCOC[C@@H]3CC4)c12 [Example 6-15]"
  MEASURED_TARGET: "GDP-loaded wild-type KRAS (WT) (Homo sapiens (Human), UniProt P01116)"
  pIC50: 7.17
- MOLECULE: "C#Cc1c(F)ccc2cc(O)cc(-c3nc4c5c(nc(OC[C@@]67CCCN6C[C@H](F)C7)nc5c3F)N3CCOCCC3CC4)c12 (mixture of isomers) [Example 6-13]"
  MEASURED_TARGET: "GDP-loaded wild-type KRAS (WT) (Homo sapiens (Human), UniProt P01116)"
  pIC50: 10.22

###

tested on: cellular pERK in Kuramochi (WT KRAS) cell-line; assay: Cell based pERK assay (HTRF), Kuramochi; conditions: Kuramochi (WT KRAS) cells, 2 hours incubation
Item-by-item account of EC50
OBSERVABLE: EC50 (nM)

- MOLECULE: "C#Cc1c(F)ccc2cc(O)cc(-c3nc4c5c(nc(OCC67CCCN6[C@H](COCC(F)(F)F)CC7)nc5c3F)N3CCCOCC3CC4)c12 (some centres unmarked)"
  PREFIX_OPERATOR: "="
  RECORDED_MEASUREMENT: 2.15
- MOLECULE: "C#Cc1c(F)c(F)cc2cc(N)cc(-c3nc4c5c(nc(OC[C@@]67CCCN6C/C(=C\\F)C7)nc5c3F)N3CCCOC[C@@H]3CC4)c12"
  PREFIX_OPERATOR: "="
  RECORDED_MEASUREMENT: 1.37
- MOLECULE: "CCc1c(F)ccc2cc(O)cc(-c3nc4c5c(nc(OC[C@@]67CCCN6C[C@H](F)C7)nc5c3F)N3CCCOC[C@@H]3CC4)c12"
  PREFIX_OPERATOR: "="
  RECORDED_MEASUREMENT: 1.91
- MOLECULE: "C#Cc1c(F)ccc2cc(O)cc(-c3nc4c5c(nc(OC[C@@]67CCCN6C[C@H](F)C7)nc5c3F)N3CCCCC[C@@H]3CC4)c12"
  PREFIX_OPERATOR: "="
  RECORDED_MEASUREMENT: 6.34
- MOLECULE: "C#Cc1c(F)ccc2cc(O)cc(-c3nc4c5c(nc(OC[C@@]67CCCN6C[C@H](F)C7)nc5c3F)N3CCOCC[C@@H]3CCC4)c12 (single isomer, unassigned)"
  PREFIX_OPERATOR: "="
  RECORDED_MEASUREMENT: 340
- MOLECULE: "C#Cc1c(F)ccc2cc(N)cc(-c3nc4c5c(nc(OC[C@@]67CCCN6[C@H](COc6nccnc6C(F)F)CC7)nc5c3F)N3CCCOC[C@@H]3CC4)c12"
  PREFIX_OPERATOR: "="
  RECORDED_MEASUREMENT: 4.17
- MOLECULE: "C#Cc1c(F)ccc2cc(O)cc(-c3nc4c5c(nc(OC[C@@]67CCCN6[C@H](COc6cc(C(F)(F)F)cnn6)CC7)nc5c3F)N3CCCOC[C@@H]3C=C4C)c12"
  PREFIX_OPERATOR: "="
  RECORDED_MEASUREMENT: 3.63
- MOLECULE: "C#Cc1c(F)ccc2cc(N)cc(-c3c(F)c4c5c(nc(OC[C@@]67CCCN6C[C@H](F)C7)nc5c3F)N3CCCOC[C@@H]3CC4)c12 (atropisomer, axis not shown)"
  PREFIX_OPERATOR: ">"
  RECORDED_MEASUREMENT: 1000
- MOLECULE: "C#Cc1c(F)ccc2cccc(-c3nc4c5c(nc(OC[C@@]67CCCN6C[C@H](F)C7)nc5c3F)N3CCCOC[C@@H]3CC4)c12"
  PREFIX_OPERATOR: "="
  RECORDED_MEASUREMENT: 384
- MOLECULE: "C#Cc1c(F)ccc2cc(O)cc(-c3nc4c5c(nc(OC[C@@]67CCCN6C[C@H](F)C7)nc5c3F)N3CCCOC[C@@H]3C=C4C)c12"
  PREFIX_OPERATOR: "="
  RECORDED_MEASUREMENT: 1.99
- MOLECULE: "C#Cc1c(F)ccc2cc(N)cc(-c3c(F)c4c5c(nc(OC[C@@]67CCCN6C[C@H](F)C7)nc5c3F)N3CCCOC[C@@H]3CC4)c12"
  PREFIX_OPERATOR: "="
  RECORDED_MEASUREMENT: 7.88
